MEASUREMENT_NOTES: Metabolic stability in mouse liver microsomes
Assay type: in vitro ADME, CD-1 Mouse
TEST_SETTINGS: mouse liver microsomes
PROPERTY_NAME: metabolic stability in liver microsomes of mouse (in words)

| COMPOUND | RESULT |
| --- | --- |
| Cn1cc(-c2cccc(NC(=O)c3cc4oc(N5CCOCC5)nc4nc3N3CCC(O)CC3)n2)cn1 [Compound A4] | good metabolic stability |
| Cn1cc(-c2cccc(NC(=O)c3cc4oc(N5CCOCC5)nc4nc3N3CC[C@@H](O)C3)n2)cn1 [Compound A1] | good metabolic stability |

----------
The entries below are paired with their reported AUC.
MEASUREMENT_NOTES: Pharmacokinetics study in ICR mice
Type: in vivo
TEST_SETTINGS: mouse, plasma, iv; male ICR mice, i.v.: 2 mg/kg, zero to 24 hours

| MOLECULE | RESULT |
| --- | --- |
| Cn1cc(-c2cccc(NC(=O)c3cc4oc(N5CCOCC5)nc4nc3N3CCC(O)CC3)n2)cn1 [Compound A4] | 4050 ng·h/mL |

// next item, AUC requested
// Cn1cc(-c2cccc(NC(=O)c3cc4c(nc3N3CCC(O)CC3)OC(C)(C)C4)n2)cn1 [Compound B5] : AUC value = 2450 ng·h/mL
